Target desc: HIV-1 RT double mutant K103N/Y181C (Human immunodeficiency virus type 1 group M subtype B, UniProt P04585, K690N/Y768C)
Construct: Heterodimeric RT was eluted using a descending gradient; made in house; host or cells: E. coli (inferred; the text describes only wild type and Y181C preparations)
Experimental details: Reverse Transcriptase (RT) assay, double mutant enzyme
Format: biochemical
Parameter IC50: see the listing below.

>  <Molecule>
CCN1c2ncc(CCOc3cccc4c3C=CS(=O)(=O)N4CCCC(=O)O)cc2C(=O)N(C)c2cccnc21 [Compound 809]

>  <IC50>
100 to 1000 nM

$$$$
>  <Molecule>
CCN1c2ncc(CCOc3cccc4c3CS(=O)(=O)N4CCOc3cc[n+]([O-])cc3)cc2C(=O)N(C)c2cccnc21 [Compound 143]

>  <IC50>
< 100 nM

$$$$
>  <Molecule>
CCN1c2ncc(CCOc3cccc4c3CCS(=O)(=O)N4Cc3csc(C)n3)cc2C(=O)N(C)c2cccnc21 [Compound 622]

>  <IC50>
< 100 nM

$$$$
>  <Molecule>
CCN1c2ncc(CCOc3cccc4c3CCS(=O)(=O)N4CS(C)(=O)=O)cc2C(=O)N(C)c2cccnc21 [Compound 627]

>  <IC50>
< 100 nM

$$$$
>  <Molecule>
CCN1c2ncc(CCOc3cccc4c3CS(=O)(=O)N4Cc3ccc[n+]([O-])c3)cc2C(=O)N(C)c2cccnc21 [Compound 132]

>  <IC50>
< 100 nM

$$$$
>  <Molecule>
CCN1c2ncc(CCOc3cccc4c3CCS(=O)(=O)N4CC(=O)NC3(C(=O)O)CC3)cc2C(=O)N(C)c2cccnc21 [Compound 638]

>  <IC50>
< 100 nM

$$$$
>  <Molecule>
CCN1c2ncc(CCOc3cccc4c3C=CS(=O)(=O)N4C)cc2C(=O)N(C)c2cccnc21 [Compound 803]

>  <IC50>
< 100 nM

$$$$
>  <Molecule>
CCN1c2ncc(CCOc3cccc4c3CS(=O)(=O)N4C)cc2C(=O)N(C)c2ccc(F)nc21 [Compound 111]

>  <IC50>
< 100 nM

$$$$
>  <Molecule>
CCN1c2ncc(COc3ccc4c(c3)CS(=O)(=O)N4)cc2C(=O)N(C)c2ccc(F)nc21 [Compound 404]

>  <IC50>
> 1000 nM

$$$$
>  <Molecule>
CCN1c2ncc(CCOc3cccc4c3CS(=O)(=O)N4)cc2C(=O)N(C)c2ccc(C)nc21 [Compound 113]

>  <IC50>
100 to 1000 nM

$$$$
>  <Molecule>
CCN1c2ncc(CCOc3ccc4c(c3)CNS4(=O)=O)cc2C(=O)Nc2c(C)cc(F)nc21 [Compound 310]

>  <IC50>
100 to 1000 nM

$$$$
>  <Molecule>
CCN1c2ncc(CCOc3cccc4c3CCNS4(=O)=O)cc2C(=O)N(C)c2cccnc21 [Compound 712]

>  <IC50>
< 100 nM

$$$$
>  <Molecule>
CCN1c2ncc(CCOc3cccc4c3CS(=O)(=O)N4)cc2C(=O)N(C)c2ccc(F)nc21 [Compound 103]

>  <IC50>
100 to 1000 nM

$$$$
>  <Molecule>
CCN1c2ncc(CCOc3ccc4c(c3)CN(C)S4(=O)=O)cc2C(=O)N(C)c2cccnc21 [Compound 303]

>  <IC50>
100 to 1000 nM

$$$$
>  <Molecule>
CCN1c2ncc(CCOc3cccc4c3CCS(=O)(=O)N4Cc3cccnc3)cc2C(=O)N(C)c2cccnc21 [Compound 629]

>  <IC50>
< 100 nM

$$$$
